FYI, the data here is from ChEMBL document CHEMBL3046649.

- Tested on: Brassica rapa subsp. chinensis
- TEST: whole plant or invertebrate
- Format: functional
- SETUP CONDITIONS: 72 h, read-out: GI
- Description: Phytotoxicity against Brassica rapa subsp. chinensis assessed as growth inhibition of radicle at 100 ppm treated to seeds after 3 days
Values of inhibition of growth at 100 ppm greater than or equal to 40% map to MET; values below map to NOT MET.

Worked set:
# COMPOUND, TARGET, CLASS LABEL
records = [
    ("CC(C)=CCCC(C)CCOC(=O)/C=C/c1ccc(Cl)cc1 (stereo not drawn)", "Brassica rapa subsp. chinensis", "NOT MET"),
    ("C=CCc1ccc(OC(=O)/C=C/c2ccc(C(C)C)cc2)c(OC)c1", "Brassica rapa subsp. chinensis", "NOT MET"),
    ("CCc1ccc(NC(=O)/C=C/c2ccccc2)cc1", "Brassica rapa subsp. chinensis", "NOT MET"),
    ("C=CCc1ccc(OC(=O)/C=C/c2ccc(Cl)cc2)c(OC)c1", "Brassica rapa subsp. chinensis", "MET"),
    ("CC(C)NC(=O)/C=C/c1ccccc1 [N-ISOPROPYLCINNAMAMIDE]", "Brassica rapa subsp. chinensis", "MET"),
]

API: above_or_equal(metric=inhibition of growth at 100 ppm, cutoff=40%) for item Cc1cccc(C)c1NC(=O)/C=C/c1ccccc1
NOT MET

Is it the case that CC(C)OC(=O)/C=C/c1ccc(C(C)C)cc1 [ISOPROPYL 3-(4-ISOPROPYLPHENYL)ACRYLATE] has inhibition of growth at 100 ppm reaching or exceeding 40%?
NOT MET

Does inhibition of growth at 100 ppm meet or surpass 40% for CC(C)CNC(=O)/C=C/c1ccc(C(C)C)cc1 ?
MET

For this compound, is measured inhibition of growth at 100 ppm 40% or higher? Cc1ccc(OC(=O)/C=C/c2ccc(Cl)cc2)c(C(C)C)c1
NOT MET

----------
- Tested on: Brassica rapa subsp. chinensis
- TEST: whole plant or invertebrate
- Type: functional
- SETUP CONDITIONS: 72 h, read-out: GI
Entries and their inhibition of growth at 100 ppm values follow.
# number only, unit % dropped from output

Example entries begin here.
# COMPOUND, TARGET, inhibition of growth at 100 ppm / %
rows = [
    ("CCCCNC(=O)/C=C/c1ccccc1 [N-BUTYLCINNAMAMIDE]", "Brassica rapa subsp. chinensis", 71),
    ("CCC(C)OC(=O)/C=C/c1ccccc1 (stereo not given) [SEC-BUTYL CINNAMATE]", "Brassica rapa subsp. chinensis", 20),
    ("COC(=O)/C=C/c1ccc(C(C)C)cc1", "Brassica rapa subsp. chinensis", 21),
    ("CCOC(=O)/C=C/c1ccc(Cl)cc1Cl [ETHYL 3-(2,4-DICHLOROPHENYL)ACRYLATE]", "Brassica rapa subsp. chinensis", 29),
    ("CCCCNC(=O)/C=C/c1ccc(Cl)cc1 [N-BUTYL-3-(4-CHLOROPHENYL)ACRYLAMIDE]", "Brassica rapa subsp. chinensis", 62),
]

compound Cc1ccc(OC(=O)/C=C/c2ccc(Cl)cc2Cl)c(C(C)C)c1 , inhibition of growth at 100 ppm observed: 0

Lookup result for CC(C)OC(=O)/C=C/c1ccc(Cl)cc1Cl [ISOPROPYL 3-(2,4-DICHLOROPHENYL)ACRYLATE] ; measured inhibition of growth at 100 ppm: 54

# compound CCCNC(=O)/C=C/c1ccccc1 [N-PROPYLCINNAMAMIDE] ; its inhibition of growth at 100 ppm = 63

Entry CC(C)NC(=O)/C=C/c1ccc(Cl)cc1Cl , inhibition of growth at 100 ppm reported as 30

# inhibition of growth at 100 ppm (compound: CC(C)c1ccc(/C=C/C(=O)NC(C)(C)C)cc1 ) is 43

----------
- System: Brassica rapa subsp. chinensis
- TEST: whole plant or invertebrate
- Format: functional
- SETUP CONDITIONS: 72 h, read-out: GI
OBSERVED PROPERTY: inhibition of growth at 100 ppm (%)
Output spec: scalar in %, unitless text.

Simply: CCCCCOC(=O)/C=C/c1ccc(Cl)cc1Cl [PENTYL 3-(2,4-DICHLOROPHENYL)ACRYLATE] , Brassica rapa subsp. chinensis, inhibition of growth at 100 ppm = 0

----------
- Tested on: Brassica rapa subsp. chinensis
- TEST: whole plant or invertebrate
- Type: functional
- SETUP CONDITIONS: 72 h, read-out: GI
Output MET for inhibition of growth at 100 ppm not less than 40%; output NOT MET otherwise.

For orientation, consider the following solved cases.
# COMPOUND, TARGET, CLASS LABEL
data = [
    ("CCCCCNC(=O)/C=C/c1ccccc1", "Brassica rapa subsp. chinensis", "MET"),
    ("O=C(/C=C/c1ccc(Cl)cc1)OCCc1ccccc1 [PHENETHYL 3-(4-CHLOROPHENYL)ACRYLATE]", "Brassica rapa subsp. chinensis", "NOT MET"),
    ("Cc1ccc(C(C)C)c(OC(=O)/C=C/c2ccc(C(C)C)cc2)c1", "Brassica rapa subsp. chinensis", "NOT MET"),
]

Next up:
# check: inhibition of growth at 100 ppm of CCCNC(=O)/C=C/c1ccc(Cl)cc1 [3-(4-CHLOROPHENYL)-N-PROPYLACRYLAMIDE] is greater than or equal to 40%
MET

----------
inhibition of growth at 100 ppm by entry:
- Tested on: Brassica rapa subsp. chinensis
- TEST: whole plant or invertebrate
- Assay type: functional
- SETUP CONDITIONS: 72 h, read-out: GI
Enter your answer as a number in %; do not include the unit.

Below, each entry is followed by its recorded inhibition of growth at 100 ppm result.
# COMPOUND, inhibition of growth at 100 ppm [%]
measured = [
    ("CCCCCOC(=O)/C=C/c1ccc(C(C)C)cc1 [PENTYL 3-(4-ISOPROPYLPHENYL)ACRYLATE]", 0),
    ("Cc1cccc(NC(=O)/C=C/c2ccccc2)c1 [N-M-TOLYLCINNAMAMIDE]", 59),
    ("CCC(C)NC(=O)/C=C/c1ccccc1 (centres undefined) [N-SEC-BUTYLCINNAMAMIDE]", 77),
]

O=C(/C=C/c1ccccc1)NCc1ccccc1Cl [N-(2-CHLOROBENZYL)CINNAMAMIDE] yielded inhibition of growth at 100 ppm of 88

The compound identified as O=C(/C=C/c1ccc(Cl)cc1Cl)OCCc1ccccc1 [PHENETHYL 3-(2,4-DICHLOROPHENYL)ACRYLATE] registered its inhibition of growth at 100 ppm at 0

Recorded result, CCCNC(=O)/C=C/c1ccc(C(C)C)cc1 , inhibition of growth at 100 ppm: 52

Form field inhibition of growth at 100 ppm, entry CCCOC(=O)/C=C/c1ccc(Cl)cc1 [PROPYL 3-(4-CHLOROPHENYL)ACRYLATE] : 78

Recorded inhibition of growth at 100 ppm (compound CCCCOC(=O)/C=C/c1ccccc1 [BUTYL CINNAMATE] ): 0

Lab note: O=C(/C=C/c1ccccc1)NCc1ccc(Cl)cc1Cl [N-(2,4-DICHLOROBENZYL)CINNAMAMIDE] gave inhibition of growth at 100 ppm of 43

----------
- Tested on: Brassica rapa subsp. chinensis
- TEST: whole plant or invertebrate
- Assay type: functional
- SETUP CONDITIONS: 72 h, read-out: GI
The following molecules are shown together with reported inhibition of growth at 100 ppm values.
Please report the result as a number followed by the unit.

Below are worked cases with known answers.
# MOLECULE, RECORDED VALUE
rows = [
    ("CC(C)=CCC/C(C)=C/COC(=O)/C=C/c1ccc(C(C)C)cc1", "0%"),
    ("COC(=O)/C=C/c1ccc(Cl)cc1 [METHYL 3-(4-CHLOROPHENYL)ACRYLATE]", "93%"),
    ("O=C(/C=C/c1ccc(Cl)cc1Cl)OCCOc1ccccc1", "8%"),
    ("CC(C)=CCC/C(C)=C/COC(=O)/C=C/c1ccc(Cl)cc1Cl", "1%"),
]

Record Cc1ccc(C(C)C)c(OC(=O)/C=C/c2ccc(Cl)cc2Cl)c1 . Reported inhibition of growth at 100 ppm: 0%

----------
- Test system: Brassica rapa subsp. chinensis
- TEST: whole plant or invertebrate
- Format: functional
- SETUP CONDITIONS: 72 h, read-out: GI
Listing: inhibition of growth at 100 ppm of selected compounds
Answer format: numeric, % implied, no suffix.

# COMPOUND, RECORDED VALUE
measured = [
    ("CC(C)(C)NC(=O)/C=C/c1ccccc1 [N-TERT-BUTYLCINNAMAMIDE]", 73),
    ("CC(C)=CCCC(C)CCOC(=O)/C=C/c1ccc(C(C)C)cc1 (stereo not drawn)", 0),
]

Notebook: COC(=O)/C=C/c1ccc(Cl)cc1Cl [METHYL 3-(2,4-DICHLOROPHENYL)ACRYLATE] , inhibition of growth at 100 ppm read as 84
